Data origin, for the record: ChEMBL document CHEMBL4715723

Target: Probable G-protein coupled receptor 142 (Mus musculus)
Sequence (Q7TQN9 whole entry): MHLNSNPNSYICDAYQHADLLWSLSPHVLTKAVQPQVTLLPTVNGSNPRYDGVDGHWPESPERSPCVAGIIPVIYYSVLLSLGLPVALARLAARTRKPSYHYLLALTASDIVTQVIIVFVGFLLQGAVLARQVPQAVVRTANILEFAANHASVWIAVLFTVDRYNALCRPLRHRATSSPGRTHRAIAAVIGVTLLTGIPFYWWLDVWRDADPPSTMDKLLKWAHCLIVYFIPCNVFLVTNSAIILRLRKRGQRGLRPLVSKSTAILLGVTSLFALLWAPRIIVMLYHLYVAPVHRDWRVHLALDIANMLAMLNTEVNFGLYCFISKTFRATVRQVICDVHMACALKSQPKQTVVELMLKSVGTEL
Test: Agonist activity at mouse GPR142 expressed in CHO cells measured for 3 mins by Fluo-4M dye based FLIPR assay
Type: cell-based
Conditions: read-out: IC50 (the source's name)
What EC50 was measured for each of the following?
Respond numerically; units are nM and should not be typed.

For the compound shown here, COc1ccccc1NC(=O)N1CCOc2ccc(-c3ccncc3)cc2C1 , give the reported EC50.
92

For the compound shown here, O=C(Nc1ccc(Cl)c(Cl)c1)N1CCOc2ccc(-c3ccncc3)cc2C1 , give the reported EC50.
138

For the compound shown here, CN1CCN(C(=O)Nc2ccc(Cl)c(Cl)c2)Cc2cc(-c3ccncc3)ccc21 , give the reported EC50.
2570

For the compound shown here, O=C(Nc1cccc(Cl)c1F)N1CCOc2ccc(-c3ccncc3)cc2C1 , give the reported EC50.
59

For the compound shown here, O=C(Nc1ccccc1)N1CCOc2ccc(-c3ccncc3)cc2C1 , give the reported EC50.
851

For the compound shown here, COc1cccc(NC(=O)N2CCOc3ccc(-c4ccncc4)cc3C2)c1 , give the reported EC50.
305
